ASSAY_SUMMARY: Stability confirmation test (impurity formation during storage under severe conditions, liquid chromatography)
Format: physicochemical
RUN_CONDITIONS: moisture-proof condition (60° C., less than 10% relative humidity), Initial
Method: The stability test was carried out for the crystalline forms prepared in the Examples to evaluate the degree to which impurities were formed during storage under severe conditions (moisture-proof condition and high-humidity exposure condition). […] The resulting supernatant was analyzed using a liquid chromatography. […]
MEASURED_QUANTITY: Peak area of total impurities (%)
Report only the number, with the unit % understood.

The reported value for CNCc1cn(S(=O)(=O)c2cccc(F)c2)c(-c2ccc(F)cc2F)c1OC.Cl in terms of Peak area of total impurities is 0.18

response.value for CNCc1cn(S(=O)(=O)c2cccc(F)c2)c(-c2ccc(F)cc2F)c1OC.O=C(O)C(O)C(O)C(=O)O (field: Peak area of total impurities) = 0.48

# compound CNCc1cn(S(=O)(=O)c2cccc(F)c2)c(-c2ccc(F)cc2F)c1OC.O=C(O)/C=C/C(=O)O ; its Peak area of total impurities = 0.62

Noted for CNCc1cn(S(=O)(=O)c2cccc(F)c2)c(-c2ccc(F)cc2F)c1OC.O=C(O)CCC(=O)O : its Peak area of total impurities reads 0.45

====

ASSAY_SUMMARY: Stability confirmation test (impurity formation during storage under severe conditions, liquid chromatography)
Format: physicochemical
RUN_CONDITIONS: high-humidity exposure condition (60° C., 95% relative humidity), After 1 week
Protocol: The stability test was carried out for the crystalline forms prepared in the Examples to evaluate the degree to which impurities were formed during storage under severe conditions (moisture-proof condition and high-humidity exposure condition). […] The resulting supernatant was analyzed using a liquid chromatography. […]
MEASURED_QUANTITY: Peak area of main component (%)
Numeric answer only, unit % assumed.

For reference, reported Peak area of main component for CNCc1cn(S(=O)(=O)c2cccc(F)c2)c(-c2ccc(F)cc2F)c1OC.O=C(O)CCC(=O)O [Example 3-1] stands at 99.56

For record CNCc1cn(S(=O)(=O)c2cccc(F)c2)c(-c2ccc(F)cc2F)c1OC.O=C(O)C(O)C(O)C(=O)O [Example 4-1] the listed Peak area of main component is 99.48

// Peak area of main component value for CNCc1cn(S(=O)(=O)c2cccc(F)c2)c(-c2ccc(F)cc2F)c1OC.O=C(O)/C=C/C(=O)O [Example 5-1] : 99.40

CNCc1cn(S(=O)(=O)c2cccc(F)c2)c(-c2ccc(F)cc2F)c1OC.Cl [Example 1-1] has a reported Peak area of main component of 99.81

====

ASSAY_SUMMARY: Stability confirmation test (impurity formation during storage under severe conditions, liquid chromatography)
Type: physicochemical
RUN_CONDITIONS: high-humidity exposure condition (60° C., 95% relative humidity), After 1 week
MEASURED_QUANTITY: Peak area of total impurities (%)
Dear colleague, please return just the value in %, with no unit written.

For record CNCc1cn(S(=O)(=O)c2cccc(F)c2)c(-c2ccc(F)cc2F)c1OC.O=C(O)CCC(=O)O the listed Peak area of total impurities is 0.44

Peak area of total impurities recorded for this molecule, CNCc1cn(S(=O)(=O)c2cccc(F)c2)c(-c2ccc(F)cc2F)c1OC.O=C(O)C(O)C(O)C(=O)O , is 0.52

// Peak area of total impurities lookup, molecule = CNCc1cn(S(=O)(=O)c2cccc(F)c2)c(-c2ccc(F)cc2F)c1OC.Cl , result: 0.19

Record CNCc1cn(S(=O)(=O)c2cccc(F)c2)c(-c2ccc(F)cc2F)c1OC.O=C(O)/C=C/C(=O)O . Reported Peak area of total impurities: 0.60

====

ASSAY_SUMMARY: Stability confirmation test (impurity formation during storage under severe conditions, liquid chromatography)
Assay type: physicochemical
RUN_CONDITIONS: moisture-proof condition (60° C., less than 10% relative humidity), After 4 weeks
Method: The stability test was carried out for the crystalline forms prepared in the Examples to evaluate the degree to which impurities were formed during storage under severe conditions (moisture-proof condition and high-humidity exposure condition). […] The resulting supernatant was analyzed using a liquid chromatography. […]
Exercise: state measured Peak area of total impurities for each of the molecules provided.
Quick reminder: number only, in %, skip the unit.

What the record says about CNCc1cn(S(=O)(=O)c2cccc(F)c2)c(-c2ccc(F)cc2F)c1OC.O=C(O)CCC(=O)O : Peak area of total impurities is 0.45

// CNCc1cn(S(=O)(=O)c2cccc(F)c2)c(-c2ccc(F)cc2F)c1OC.O=C(O)/C=C/C(=O)O : Peak area of total impurities value = 0.63

CNCc1cn(S(=O)(=O)c2cccc(F)c2)c(-c2ccc(F)cc2F)c1OC.Cl yielded Peak area of total impurities of 0.20

Entry CNCc1cn(S(=O)(=O)c2cccc(F)c2)c(-c2ccc(F)cc2F)c1OC.O=C(O)C(O)C(O)C(=O)O ; Peak area of total impurities = 0.52

====

ASSAY_SUMMARY: Stability confirmation test (impurity formation during storage under severe conditions, liquid chromatography)
Type: physicochemical
RUN_CONDITIONS: high-humidity exposure condition (60° C., 95% relative humidity), After 4 weeks
MEASURED_QUANTITY: Peak area of main component (%)
Your answer should be a plain number; it is taken to be in %.

Reported Peak area of main component for CNCc1cn(S(=O)(=O)c2cccc(F)c2)c(-c2ccc(F)cc2F)c1OC.O=C(O)/C=C/C(=O)O was 99.30

The recorded Peak area of main component for entry CNCc1cn(S(=O)(=O)c2cccc(F)c2)c(-c2ccc(F)cc2F)c1OC.Cl equals 99.80

Summary for this compound, CNCc1cn(S(=O)(=O)c2cccc(F)c2)c(-c2ccc(F)cc2F)c1OC.O=C(O)C(O)C(O)C(=O)O : Peak area of main component is 99.23

compound CNCc1cn(S(=O)(=O)c2cccc(F)c2)c(-c2ccc(F)cc2F)c1OC.O=C(O)CCC(=O)O , Peak area of main component observed: 99.47

====

ASSAY_SUMMARY: Stability confirmation test (impurity formation during storage under severe conditions, liquid chromatography)
Type: physicochemical
RUN_CONDITIONS: high-humidity exposure condition (60° C., 95% relative humidity), After 4 weeks
MEASURED_QUANTITY: Peak area of total impurities
The reply must contain the numeric value and, after it, the unit.

Reported Peak area of total impurities of CNCc1cn(S(=O)(=O)c2cccc(F)c2)c(-c2ccc(F)cc2F)c1OC.O=C(O)/C=C/C(=O)O : 0.70%

The recorded Peak area of total impurities for CNCc1cn(S(=O)(=O)c2cccc(F)c2)c(-c2ccc(F)cc2F)c1OC.O=C(O)C(O)C(O)C(=O)O is 0.77%

Summary for this molecule, CNCc1cn(S(=O)(=O)c2cccc(F)c2)c(-c2ccc(F)cc2F)c1OC.Cl : Peak area of total impurities is 0.20%

Record summary for CNCc1cn(S(=O)(=O)c2cccc(F)c2)c(-c2ccc(F)cc2F)c1OC.O=C(O)CCC(=O)O : reported Peak area of total impurities = 0.54%
